Assay System: SARS-CoV-1 spike protein (SARS-CoV-1, UniProt P59594 P59594:14-1195)
Protocol Notes: filter
Test Conditions: label: 5'-32P
pKd: −log10 of the molar value.
Recorded Metric: pKd

The reported value for MSA52 (ssDNA) DNA: TTACGTCAAGGTGTCACTCCGTAGGGTTTGGCTCCGGGCCTGGCGTCGGTCGTCTCTCGCGAAGCATCTCTTTGGCGTG in terms of pKd is < 6.82
